- Test system: Klebsiella pneumoniae
- TEST CONDITIONS: Concentration 20 uM; ASSAY_TEST Inhibition of Bacterial Growth; detection method Absorption (OD600); MEDIA CAMHB; plate type 384well; NBS; CORNING #3640; time 18 hr
- Description: Antibacterial activity against Klebsiella pneumoniae MDR ATCC 70063 (CO-ADD:GN_003); MIC in CAMBH media using NBS plates, by OD(600)
Potency and affinity values are given separately.

COMPOUND | UNITS SYMBOL | Inhibition
CC(C)(C)OC(=O)N1CCC(Cn2nc(-c3cnc4ccccc4c3)c3c(N)ncnc32)CC1 | % | 15.77
CC1CC1C(=O)NC1CCN(CC2(c3ccccc3)CCCCC2)CC1 (stereo unspecified) | % | 16.4
CC1=Nc2ccc(Cl)cc2C(O)(c2ccc(C)cc2)N1CCN1CCCCC1 (stereo unspecified) | % | 18.59
FC(F)(F)c1nnc2ccc(Cl)nn12 | % | 7.1
Cc1[nH]c2cc(F)cc(F)c2c(=O)c1-c1ccc(Oc2ccc(OC(F)(F)F)cc2)cc1 | % | 5.11
O=C(NCCc1ccccc1)c1cc(-c2cccnc2)cnc1NCC1CC1 | % | -2.11
O=C(Nc1nnc(S)s1)c1cc(Br)ccc1Cl | % | 6.18
CC(C)(C)c1cnc(NC(=O)c2ccccc2O)s1 | % | 10.5
CCCCc1ccc(NC(=O)Nc2ccc(O[C@H]3CCCC[C@@H]3N(C)c3ccccc3)c(F)c2)cc1 | % | 12.88
O=C(Nc1cccc(-c2ccc(NCCCN3CCCC3)nc2)c1)c1ccccc1 | % | 8.2
CN1CCCC1CCO[C@](C)(c1ccccc1)c1ccc(Cl)cc1.O=C(O)/C=C/C(=O)O (stereo partly specified) | % | 21.77

====

- System: Klebsiella pneumoniae
- TEST CONDITIONS: Concentration 20 uM; ASSAY_TEST Inhibition of Bacterial Growth; detection method Absorption (OD600); MEDIA CAMHB; plate type 384well; NBS; CORNING #3640; time 18 hr
Potency and affinity values are given separately.

COMPOUND | UNITS SYMBOL | Inhibition
CCN(CC)CCCN1CCN(C(=O)c2cccc(-c3noc(C(F)(F)F)n3)c2)CC1 | % | 3.68
Cc1ccc2[nH]c(C3CCCNC3)c(-c3ccncc3)c2c1.Cl.Cl (stereo not given) | % | -25.08
Nc1ncnc2c1c(Cc1cccc3ccccc13)nn2CC1CCNCC1 | % | -3.02
Cl.c1ccc(C[C@@H]2CN(c3nccc(Oc4ccc(-n5ccnc5)cc4)n3)CCN2)cc1 | % | 13.63
Clc1ccc(Cl)c(CO[C@H]2CCCC[C@@H]2n2ccnc2)c1 | % | 15.52

====

- Test system: Cryptococcus neoformans
- TEST CONDITIONS: Concentration 20 uM; ASSAY_TEST Inhibition of Fungal Growth; detection method Resazurin; Absorption (OD600-OD570); plate type 384well; NBS; CORNING #3640
- Description: Antifungal activity against Cryptococcus neoformans H99 ATCC 208821 (CO-ADD:FG_002); MIC in YNB media using NBS plates, by Resazurin OD(600-570)
Results with a measured potency or affinity are listed apart.

MOLECULE | Inhibition (%)
NC(=O)c1cc(-c2ccsc2)ccc1OCCOc1ccccc1 | -0.49
N=C(N)c1ccc(-c2cc(-c3ccccc3)on2)cc1 | -9.38
c1ccc2c(c1)CN(CC1CC1)CC1(CCN(Cc3c[nH]c4cnccc34)CC1)O2 | -4.09
CCC(=O)Nc1ccccc1C(=O)Nc1ccccn1 | -4.64
Cc1ccc2[nH]c(C3CCCNC3)c(-c3ccncc3)c2c1.Cl.Cl (stereo unspecified) | 1.08
Cc1ccc(-c2cc(C(=O)Nc3cccnc3)c3cc(Br)ccc3n2)cc1 | -8.45
